# tested-on: human PD-1 expressed on cells (human, UniProt Q15116 25-288)
# Sequence (Q15116 25-288): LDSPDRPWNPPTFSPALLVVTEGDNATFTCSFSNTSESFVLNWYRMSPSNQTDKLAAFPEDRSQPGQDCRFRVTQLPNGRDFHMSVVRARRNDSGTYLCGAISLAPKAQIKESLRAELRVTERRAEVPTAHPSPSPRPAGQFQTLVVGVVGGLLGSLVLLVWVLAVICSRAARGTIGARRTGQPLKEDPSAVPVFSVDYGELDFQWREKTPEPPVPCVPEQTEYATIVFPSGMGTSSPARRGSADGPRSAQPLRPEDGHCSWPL
# protocol-notes: cell-based or functional assay
# IL-2 release in HuT78/PD-1, EC50 per record follows
measurement-kind: IL-2 release in HuT78/PD-1, EC50

binder	measurement-kind	result
hu326-2 S9P (antibody, V domains shown, mAb; constant regions not restated (hu326-1 is IgG2 / kappa); Back mutation to murine) VH: QVQLVQSGPELKKPGASVKVSCKASGYTFTNYGMNWVRQAPGQGLEWMGWINNNNGEPTYAQGFRGRFVFSLDTSASTAYLQISSLKTEDTAVYFCARDVMDYWGQGTTVTVSS VL: DIVLTQSPASLAVSPGQRATITCRASESVDNYGYSFMHWYQQKPGQPPKLLIYRASNLESGVPARFSGSGSRTDFTLTINPVEANDTANYYCQQSKEYPTFGGGTKVEIK	IL-2 release in HuT78/PD-1, EC50	0.136 µg/mL
hu326-2 A76V (antibody, V domains shown, mAb; constant regions not restated (hu326-1 is IgG2 / kappa); Forward mutation to human) VH: QVQLVQSGSELKKPGASVKVSCKASGYTFTNYGMNWVRQAPGQGLEWMGWINNNNGEPTYAQGFRGRFVFSLDTSVSTAYLQISSLKTEDTAVYFCARDVMDYWGQGTTVTVSS VL: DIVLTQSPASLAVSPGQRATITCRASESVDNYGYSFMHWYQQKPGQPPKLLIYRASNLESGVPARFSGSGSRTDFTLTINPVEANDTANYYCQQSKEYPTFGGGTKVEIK	IL-2 release in HuT78/PD-1, EC50	0.112 µg/mL
